Each entry below carries its reported MIC.
test system: Staphylococcus aureus; experiment: Antibacterial activity against Staphylococcus aureus ATCC 33591; assay type: functional
property: MIC

# compound, property, recordedValue
measured = [
    ("CC(=O)NC[C@H]1CN(c2ccc(C(=O)/C=C/c3ccc(F)cc3)cc2)C(=O)O1", "MIC", "> 32 µg/mL"),
    ("CC(=O)NC[C@H]1CN(c2ccc(/C=C/C(=O)c3c(F)cc(Cl)cc3Cl)cc2)C(=O)O1", "MIC", "> 32 µg/mL"),
    ("CC(=O)NC[C@H]1CN(c2ccc(/C=C/C(=O)c3ccc(C)cc3)cc2)C(=O)O1", "MIC", "32 µg/mL"),
    ("CC(=O)NC[C@H]1CN(c2ccc(C(=O)/C=C/c3ncc[nH]3)c(F)c2)C(=O)O1", "MIC", "16 µg/mL"),
    ("COc1ccc(C(=O)/C=C/c2ccc(N3C[C@H](CNC(C)=O)OC3=O)cc2)cc1", "MIC", "> 32 µg/mL"),
    ("CC(=O)NC[C@H]1CN(c2ccc(C(=O)/C=C/c3ccccc3)cc2)C(=O)O1", "MIC", "> 32 µg/mL"),
    ("CC(=O)NC[C@H]1CN(c2ccc(C(=O)/C=C/c3ccccn3)c(F)c2)C(=O)O1", "MIC", "4 µg/mL"),
    ("COC(=O)c1ccc(/C=C/C(=O)c2ccc(N3C[C@H](CNC(C)=O)OC3=O)cc2)cc1", "MIC", "> 32 µg/mL"),
    ("CC(=O)NC[C@H]1CN(c2ccc(/C=C/C(=O)c3cccc(F)c3)cc2)C(=O)O1", "MIC", "64 µg/mL"),
    ("COC(=S)NC[C@H]1CN(c2ccc(C(=O)/C=C/c3ccccn3)c(F)c2)C(=O)O1", "MIC", "0.25 µg/mL"),
    ("CC(=O)NC[C@H]1CN(c2ccc(C(=O)/C=C/c3ccco3)cc2)C(=O)O1", "MIC", "32 µg/mL"),
]
